Ref: patent US20240182445A1

- Test System: human TREK-1 (Homo sapiens, UniProt O95069)
- Construct: expressed in transfected cells
- Sequence (O95069 whole entry): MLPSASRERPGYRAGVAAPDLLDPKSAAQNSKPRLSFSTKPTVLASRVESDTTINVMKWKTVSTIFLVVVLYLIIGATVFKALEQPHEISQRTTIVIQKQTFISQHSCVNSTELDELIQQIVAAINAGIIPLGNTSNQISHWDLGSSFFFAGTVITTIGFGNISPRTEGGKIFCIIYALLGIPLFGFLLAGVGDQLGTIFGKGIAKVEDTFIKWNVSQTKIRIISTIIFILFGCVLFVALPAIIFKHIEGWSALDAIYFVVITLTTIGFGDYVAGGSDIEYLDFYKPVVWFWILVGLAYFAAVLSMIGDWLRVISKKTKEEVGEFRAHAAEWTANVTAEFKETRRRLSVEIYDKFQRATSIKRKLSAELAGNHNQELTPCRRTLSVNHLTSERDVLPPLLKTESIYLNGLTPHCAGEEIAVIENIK
- Test Summary: TREK-1 Thallium (Tl+) flux assay, Method 1
- Format: cell-based
- Test Conditions: TREK-1 Thallium (Tl+) flux assay; values without footnote *12 are Method 1
Measurement Kind: IC50 (nM)
Could you give me the number in nM? Just the number is fine.

Before answering, review these 5 worked examples.
(Q) Looking for the measured IC50 of CC(=O)N1CCOC(Cn2ncc(Cl)c2C(=O)Nc2ncc(C#Cc3ccccc3)cc2F)C1 (stereo not drawn) [Compound 27] , can you help?
(A) 90

(Q) Next up: O=C(Nc1ncc(C#Cc2ccccc2)cc1F)c1c(Cl)cnn1CC1CCOCC1 [Compound 68]
(A) 160

(Q) Next up: CC(=O)N1CCC(n2ncc(Cl)c2C(=O)Nc2ncc(C#Cc3cccc(F)c3)cc2C)CC1C (stereo not drawn) [Compound 72]
(A) 160

(Q) Next up: CC(=O)N1CCC(n2ncc(Cl)c2C(=O)Nc2ncc(C#Cc3ccccc3F)cc2C)C(F)C1 (stereo in doubt) [Compound 159]
(A) 250

(Q) Next up: Cc1cc(C#Cc2ccccc2)cnc1NC(=O)c1c(Cl)cnn1C1CCN(C(=O)C2CC2)CC1 [Compound 149]
(A) 240

New cases:
(Q) Looking for the measured IC50 of Cc1cc(C#Cc2ccccc2)cnc1NC(=O)c1c(Cl)cnn1CC1(F)CCN(C(=O)OC(C)(C)C)CC1 [Compound 155] , can you help?
(A) 240

(Q) Next up: CC(=O)N1CC[C@H](Cn2ncc(Cl)c2C(=O)Nc2ncc(C#Cc3ccccc3)cc2C)[C@H](F)C1 [Compound 82]
(A) 160

(Q) Next up: CC(=O)N1CCC(n2ncc(Cl)c2C(=O)Nc2ncc(C#Cc3cccs3)cc2C)CC1 [Compound 19]
(A) 60

(Q) Next up: CCNC(=O)N1CCC(n2ncc(Cl)c2C(=O)Nc2ncc(C#Cc3ccc(F)cc3)cc2C)CC1 [Compound 92]
(A) 180

(Q) Next up: Cc1cc(C#Cc2ccccc2)cnc1NC(=O)c1c(Cl)cnn1CC1CCN(C(=O)C2CC2)CC1 [Compound 52]
(A) 140

---

pIC50 listing for selected molecules.
- Test System: human TREK-1 (Homo sapiens)
- Construct: expressed in transfected cells
- Test Summary: TREK-1 Thallium (Tl+) flux assay, Method 1
- Assay type: cell-based
- Test Conditions: TREK-1 Thallium (Tl+) flux assay; no *^12 (Method 2) mark on these rows
Scale: pIC50 equals -log10([C]), with [C] in mol/L.

(Q) Looking for the measured pIC50 of CC(=O)N1CCC(Cn2ncc(Cl)c2C(=O)Nc2ncc(C#Cc3ccccc3F)cc2C)CC1 , can you help?
(A) 6.07

(Q) Next up: Cc1cc(C#Cc2ccccc2)cnc1NC(=O)c1c(Cl)cnn1CC1(F)CCN(C(=O)C(C)C)CC1
(A) 6.44

(Q) Next up: CC(=O)N1CC(F)(Cn2ncc(Cl)c2C(=O)Nc2ncc(C#Cc3ccccc3)cc2C)C1
(A) 6.48

(Q) Next up: CC(=O)N1CCC[C@H](Cn2ncc(Cl)c2C(=O)Nc2ncc(C#Cc3ccccc3)cc2F)C1
(A) 6.37

(Q) Next up: CC(C)(C)OC(=O)N1CCC(n2ncc(Cl)c2C(=O)Nc2ncc(C#Cc3ccccc3)cc2F)C1 (stereo not shown)
(A) 6.43

New cases:
(Q) Looking for the measured pIC50 of CC(=O)N1CC2CC(C1)C2Cn1ncc(Cl)c1C(=O)Nc1ncc(C#Cc2ccccc2)cc1C (stereo not shown) , can you help?
(A) 6.01

(Q) Next up: Cc1cc(C#Cc2ccc(F)cc2)cnc1NC(=O)c1c(Cl)cnn1CC1CN(C(=O)C2CCC2)CCO1 (stereo not shown)
(A) 6.03
